# System: KM12 colon
# PROTOCOL DESCRIPTION: NCI-60 one-dose screen, 48 h (100 = growth as untreated, 0 = no growth, -100 = all killed)
# PARTICULARS: 10 µM unless noted
The panel holds about 83,000 compounds, 20% with a hit somewhere; the sample as a whole holds those more often.
MEASURED METRIC: growth (%)
Please respond with the number in % and leave the unit unwritten.

Exam item: Tell me growth reported for COc1ccc(NC(=O)CSc2nnc(-c3ccc4nc(-c5ccccc5)[nH]c4c3)o2)cc1
Marked response: 99.4

Exam item: Tell me growth reported for O=C1CCCC2=C1C(c1c[nH]c3ccc(Br)cc13)Cc1cc(Br)ccc1N2 (stereo unspecified)
Marked response: 21.7

Exam item: Tell me growth reported for CNC(=O)c1cc(-c2ccc(NS(=O)(=O)c3ccc(C)cc3)cc2)nc2cccnc12
Marked response: 101

Exam item: Tell me growth reported for Cc1ccc2c(c1)C(=O)/C(=C/c1cccc(F)c1)S2
Marked response: 101

Exam item: Tell me growth reported for COc1cc(-c2nnc(SCc3ccc(O)c4ncccc34)n2-c2ccccc2)cc(OC)c1OC
Marked response: 14

Exam item: Tell me growth reported for Cc1cc(C)cc(C(=O)Nc2cccc(C#Cc3cccc4[nH]nc(N)c34)c2)c1
Marked response: 12.6

Exam item: Tell me growth reported for CN1CCN(c2ccc(/C=N/Nc3nc4ccccc4c(=O)n3-c3ccccc3)cc2)CC1
Marked response: 99.8

Exam item: Tell me growth reported for C[C@@H](Nc1ncnc2ccc(-c3cnc(Cl)c(NS(C)(=O)=O)c3)cc12)c1ccccc1
Marked response: 89.3

Exam item: Tell me growth reported for CC(C)(C)n1nnnc1C(Nc1cccc2c1OCO2)c1cc2cccc3ccc4cccc1c4c32 (stereo unspecified)
Marked response: 95.4

Exam item: Tell me growth reported for Cc1ccc2c(c1)C13C(=C2Br)CCCN1C(=O)c1ccccc13 (stereo unspecified)
Marked response: 91.5

Exam item: Tell me growth reported for Cc1nn(-c2ccccc2)c2ncnc(N/N=C/c3ccccc3)c12
Marked response: 80.9

Exam item: Tell me growth reported for NC(N)=Nc1ccc(Oc2cccc(NC(N)=Nc3ccc(Br)cc3)c2)cn1
Marked response: 66.5

Exam item: Tell me growth reported for C=CCn1c(SCC(=O)Nc2ccc(C(=O)/C=C/c3ccc(Cl)cc3)cc2)nnc1-c1c[nH]c2ccccc12
Marked response: 80.4

Exam item: Tell me growth reported for CN1CCC(n2cc(Nc3ncc4c(=O)n(-c5c(Cl)cccc5Cl)cc(Br)c4n3)cn2)CC1
Marked response: 14.8

Exam item: Tell me growth reported for O=C(Cn1c(-c2ccccc2)nc2cc(Cl)c(Cl)cc21)N=Nc1c(O)[nH]c2ccc(Cl)cc12
Marked response: 73.8

Exam item: Tell me growth reported for O=C(O)c1cn(C2CC2)c2cc(N3CCN(C(=O)CN4C(=O)CSC4=O)CC3)c(F)cc2c1=O
Marked response: 101

Exam item: Tell me growth reported for COc1ccc(Cn2cc3c(c2-c2cc(OC)c(OC)c(OC)c2)CCc2c(CN4CCOCC4)noc2-3)cc1
Marked response: 16.9

Exam item: Tell me growth reported for COc1cc(-c2nn(C(C)(C)C)cc2-c2ccnc(NCCCNS(=O)(=O)c3ccc(F)cc3)n2)ccc1Cl
Marked response: 78.5

Exam item: Tell me growth reported for N/C(=N\C(N)=N\c1nc2ccccc2s1)c1ccc(C(F)(F)F)cc1
Marked response: 61.6

Exam item: Tell me growth reported for COc1ccc([C@H]2[C@H](O)C(=O)N2c2cc(OC)c(OC)c(OC)c2)cc1F
Marked response: 9.99

Exam item: Tell me growth reported for COc1ccc2c(c1)c(CC(=O)[Se]CC#N)c(C)n2C(=O)c1ccc(Cl)cc1
Marked response: -5.24

Exam item: Tell me growth reported for O=C(Nc1cccc(C(F)(F)F)c1)c1cc(-c2ccc(F)cc2F)ccc1O
Marked response: 3.77

Exam item: Tell me growth reported for CCO/C=N/C1=C(C#N)C(c2ccc(Cl)cc2)c2sc3c(C)cccc3c2O1 (stereo unspecified)
Marked response: 15.2

Exam item: Tell me growth reported for CC(C)(C)c1ccc(CC(=O)Nc2sc3c(c2C(N)=O)CCC(=O)C3)cc1
Marked response: -3.85

Exam item: Tell me growth reported for CCCC(=O)NC(c1cccnc1)c1cc(C(C)(C)C)c2cccnc2c1O (stereo unspecified)
Marked response: 18.8

Exam item: Tell me growth reported for COc1cccc(/C=C(/C)c2ccc3cccc(OC)c3[o+]2)c1O
Marked response: 99.1

Exam item: Tell me growth reported for COc1ccc2c(c1)c(CC(=O)[Se]CCC#N)c(C)n2C(=O)c1ccc(Cl)cc1
Marked response: 26.5

Exam item: Tell me growth reported for CNc1ncc2cc(-c3ccc(-c4ncccc4F)cc3Cl)c(=O)n(CC3OCC(N)CO3)c2n1 (stereo unspecified)
Marked response: 95.7

Exam item: Tell me growth reported for N#Cc1cccc(/C(N)=N/C(N)=N/c2nc3ccccc3s2)c1
Marked response: 24.6

Exam item: Tell me growth reported for Cc1cc(-c2ccc(Cl)cc2)n(Cc2nnc(SCC(=O)Nc3ccc(S(N)(=O)=O)cc3)n2-c2ccc([N+](=O)[O-])cc2)n1
Marked response: 79.6

Exam item: Tell me growth reported for C#C[C@]1(O)CC[C@H]2[C@@H]3CC=C4c5sc(-c6ccc7c(c6)OCO7)nc5CC[C@]4(C)[C@H]3CC[C@@]21C
Marked response: 14

Exam item: Tell me growth reported for CCc1cccc(NC(=O)CNc2cc(S(=O)(=O)N(C)C)cc(C)c2C)c1
Marked response: 98.9

Exam item: Tell me growth reported for CCOC(=O)c1c(Nc2ccccc2)nn2c(-c3ccccc3)ccnc12
Marked response: 88.9

Exam item: Tell me growth reported for NC(N)=Nc1ccc(Oc2cccc(Nc3ccc(Cl)c(C(F)(F)F)c3)c2)cc1
Marked response: 7.04

Exam item: Tell me growth reported for CCCCCCCn1cc2c(N[C@H](C)c3ccccc3)ncnc2n1
Marked response: 100

Exam item: Tell me growth reported for COc1cc(-c2nc(SCCC(C)C)nc(NNC(=O)c3ccncc3)c2C#N)cc(OC)c1OC
Marked response: 86.5
